Attribution: patent US20240325486A1

target: CMKLR1 (recombinant, species not given); assay: cell-based or functional assay
Non-standard residues stand in square brackets, D forms with d. No end group written: not given here. Tic = O=C(O)[C@@H]1Cc2ccccc2CN1
ATTRIBUTE MEASURED: CMKLR1 canonical Gαi signal transduction, EC50 (BSA) (no wash) (nM)

These recorded examples may help you get a feel for the data.
binder="[dY]FLP[dS]QF[dA][Tic]S [s-Stable Chem (soluble stable chemerin peptide)]" numeric_result=5.1
binder="[dY]FLP[dS]QF[dA][Tic]S (also: C16 (palmitic acid) lipid tail, linker and attachment not given here) [C16 lipidated stable chemerin 9 analog]" numeric_result=6.4
binder="[dY]FLP[dS]QF[dA][Tic]S (also: C10 lipid tail, linker and attachment not given here) [C10 lipidated stable chemerin 9 analog]" numeric_result=17.8
binder="[dY]FLP[dS]QF[dA][Tic]S (also: C16:1 lipid tail, linker and attachment not given here) [C16:1 lipidated stable chemerin 9 analog]" numeric_result=29.5
binder="[dY]FLP[dS]QF[dA][Tic]S (also: C4 lipid tail, linker and attachment not given here) [C4 lipidated stable chemerin 9 analog]" numeric_result=11
binder="[dY]FLP[dS]QF[dA][Tic]S (also: C14:1 lipid tail, linker and attachment not given here) [C14:1 lipidated stable chemerin 9 analog]" numeric_result=26.2

(a) [dY]FLP[dS]QF[dA][Tic]S (also: C18:1 lipid tail (which C18:1 acid not given here), linker and attachment not given here) [C18:1 lipidated stable chemerin 9 analog]
(b) [dY]FLP[dS]QF[dA][Tic]S (also: C18:3 (linolenic acid) lipid tail, linker and attachment not given here) [C18:3 lipidated stable chemerin 9 analog]
(c) [dY]FLP[dS]QF[dA][Tic]S (also: cholesterol lipid tail, linker and attachment not given here) [Cholesterol lipidated stable chemerin 9 analog]
Query :: Reorder: CMKLR1 canonical Gαi signal transduction, EC50 (BSA) (no wash), max to min. Field: ranking. Enter the labels in the order requested.
Result :: c, b, a
(c: 108 nM, b: 73.3 nM, a: 12.7 nM)
